Ref: ChEMBL document CHEMBL1201862

# Tested on: SF-295
# Test Protocol: NCI tumour cell line growth inhibition, 48 h
Calls of active or inactive are those of the source. Cut-off read from the data, not from the text of the source: active = GI50 up to about 1.1 µM and inactive = higher.
API: response.call in active, inactive

Request: For NC(=S)N1N=C(c2ccccc2O)CC1c1ccccc1 (stereo not given) , which call appears in the assay record?
Result: inactive

Request: COc1nc(SC)nc2c1cnn2C1OC(C(O)CO)C(OC)C1O (stereo not given)
Result: inactive

Request: CC(=O)OCC1C(C(C)OC(C)=O)CCC2C1CCC1(C)C(OC(C)=O)CCC21 (stereo not given)
Result: inactive

Request: O=C1C(O)=C(C(C2=C(O)C(=O)c3ccccc3C2=O)c2ccc(Cl)cc2)C(=O)c2ccccc21
Result: inactive

Request: Oc1c2c(c(O)c3ccccc13)C1(N=N2)c2ccccc2Oc2ccccc21
Result: inactive

Request: O=C(O)C12CCCCC1CCCC2 (stereo not given)
Result: inactive

Request: CCC(/C=C/C1OC(=O)C=CC1C)=C\C(C)C/C=C/C(C)=C/C(C)C(=O)C(C)C(O)C(C)C/C(C)=C/C(=O)O (stereo not given)
Result: active

Request: NS(=O)(=O)c1ccc(NC(=S)N/C=C2\C(=O)Oc3ccccc3C2=O)cc1
Result: inactive

Request: O=P1(O)c2ccccc2CSCc2ccccc21
Result: inactive

Request: CCOC(=O)c1cc2cc(N(C(C)=O)C(C)=O)ccc2s1
Result: inactive
